Test: qHTS profiling for inhibitors of Plasmodium falciparum (3D7) proliferation (AID 743322);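 note: infected erythrocytes exposed to compound for 72 h before lysis; 100% = DMSO vehicle wells and 0% = 0.29 µM artemisinin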
Conditions: P. falciparum 3D7 proliferation; at 28.7 µM (top of the series)
Quick list: remaining parasite growth % (stronger effect = lower value) per entry.
Property: remaining parasite growth % (stronger effect = lower value) (%)

[
  {
    "Chem smiles": "COc1cc(N2CCC(N3CCN(C)CC3)CC2)ccc1Nc1ncc(Cl)c(Nc2ccccc2S(=O)(=O)C(C)C)n1",
    "Val": -0.393
  },
  {
    "Chem smiles": "COc1cc2ncnc(-n3nc(-c4ccccn4)nc3N)c2cc1OC",
    "Val": 68.8
  },
  {
    "Chem smiles": "O=C(O)c1ccc(-c2cc3cccnc3c(-c3ccc4nonc4c3)n2)cc1",
    "Val": 98.1
  },
  {
    "Chem smiles": "CC(C)[C@H](CO)Nc1nc(Nc2ccc(C(=O)O)c(Cl)c2)c2ncn(C(C)C)c2n1",
    "Val": 41.8
  },
  {
    "Chem smiles": "O=C1C(Cl)=C(NCCN2CCOCC2)C(=O)c2ncccc21",
    "Val": 34.6
  },
  {
    "Chem smiles": "COc1ncc(-c2ccc3nccc(-c4ccnnc4)c3c2)cc1NS(=O)(=O)c1ccc(F)cc1F",
    "Val": -1.12
  },
  {
    "Chem smiles": "N#Cc1ccc(NC(=O)Nc2ccccc2Br)c2n[nH]nc12",
    "Val": 66.9
  },
  {
    "Chem smiles": "CC(C)(C(=O)NCC(F)(F)C(F)(F)F)C(=O)N[C@@H]1C(=O)Nc2ccccc2-c2ccccc21",
    "Val": 5.09
  }
]

Numbers sourced from PubChem BioAssay (NCATS).
